target: HCV NS5B RdRp genotype 1b (Hepatitis C virus genotype 1b); construct: The protein was expressed with an 18 amino acid C-terminal truncation to enhance the solubility; made in house; host or cells: E. coli BL21(DE3), pET21a vector; assay: HCV NS5B RdRp enzyme assay (standard / modified); type: biochemical; conditions: Table 2; HCV NS5B genotype 1b
Sequence (Q9WMX2 2420-2992): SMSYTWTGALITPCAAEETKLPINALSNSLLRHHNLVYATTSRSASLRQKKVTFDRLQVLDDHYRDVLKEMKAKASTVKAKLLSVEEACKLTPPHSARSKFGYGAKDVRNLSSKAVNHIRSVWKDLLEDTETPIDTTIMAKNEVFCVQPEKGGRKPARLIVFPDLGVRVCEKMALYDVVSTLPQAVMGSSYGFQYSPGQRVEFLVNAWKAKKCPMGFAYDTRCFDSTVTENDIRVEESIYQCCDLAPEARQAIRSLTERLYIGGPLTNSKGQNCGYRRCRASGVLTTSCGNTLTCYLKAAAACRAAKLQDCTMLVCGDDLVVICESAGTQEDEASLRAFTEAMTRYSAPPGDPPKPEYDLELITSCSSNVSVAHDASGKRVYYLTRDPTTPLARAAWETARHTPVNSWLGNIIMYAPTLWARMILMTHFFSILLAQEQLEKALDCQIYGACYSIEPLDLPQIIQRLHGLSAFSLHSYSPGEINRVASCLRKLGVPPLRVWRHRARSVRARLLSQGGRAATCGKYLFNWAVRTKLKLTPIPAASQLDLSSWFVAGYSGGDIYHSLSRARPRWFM
IC50 strictly under 5 nM means met; at 5 nM or over means not met.

1. CNC(=O)c1c(-c2ccc(F)cc2)nn2ccc(-c3cc(C(=O)NC4(c5ccccn5)CC4)c(OC)cc3C)c(F)c12 [drawing 178]
not met
2. CNC(=O)c1c(-c2ccc(F)cc2)[nH]c2ccc(-c3cccc(C(=O)NC(C)(C)c4ccccc4)c3)cc12 [drawing 181]
not met
3. CNC(=O)c1c(-c2ccc(F)cc2)sc2ccc(-c3cccc(C(=O)NC(C)(C)C)c3)cc12 [drawing 183]
not met
4. CNC(=O)c1c(-c2ccc(F)cc2)nn2ccc(-c3cc(C(=O)NC4(c5ccccc5)CC4)cc(F)c3C)c(F)c12 [drawing 175]
not met
5. CCN(c1cn2nc(-c3ccc(F)cc3)c(C(=O)NC)c2cc1-c1cccc(C(=O)NC(C)(C)c2ccccc2)c1)S(C)(=O)=O [drawing 176]
not met
6. CNC(=O)c1c(-c2ccc(F)cc2)nn2ccc(-c3cc(C(=O)NC4(c5ccccc5)CC4)c(OC)cc3C)c(F)c12 [drawing 174]
not met
7. CNC(=O)c1c(-c2ccc(F)cc2)nc2ccc(-c3cccc(C(=O)NC(C)(C)C)c3)cn12 [drawing 180]
not met
8. CNC(=O)c1c(-c2ccc(F)cc2)oc2ncc(-c3cc(C(=O)NC4(c5ccccn5)CC4)ccc3C)cc12 [drawing 186]
met
9. CNC(=O)c1c(-c2ccc(F)cc2)nn2ccc(-c3cc(C(=O)NC4(c5ccccn5)CC4)ccc3C)cc12 [drawing 179]
not met
10. CNC(=O)c1c(-c2ccc(F)cc2)nn2cc(N(CCO)S(C)(=O)=O)c(-c3cccc(C(=O)NC4(c5ccccn5)CC4)c3)cc12 [drawing 182]
not met
11. CNC(=O)c1c(-c2ccc(F)cc2)nn2cc(N(CCO)S(C)(=O)=O)c(OC)cc12 [drawing 184]
not met
12. CNC(=O)c1c(-c2ccc(F)cc2)nn2ccc(-c3cc(C(=O)NC4(c5ccccc5)CC4)ccc3C)cc12 [drawing 173]
met
